Structures can show the parent of a compound that is named as a salt.
Reported Ki values, C-type lectin domain family 4 member K (Homo sapiens, UniProt Q9UJ71).

molecule	unit_spec	Ki
N[C@H]1C(O)O[C@H](CO)[C@@H](O)[C@@H]1O (some centres not stated) [GLUCOSAMINE SULFATE]	mM	1.4
C#CCO[C@H]1O[C@H](CO)[C@@H](O)[C@H](O)[C@@H]1NC(=O)CS(=O)(=O)O	mM	1.3

###

System: Human immunodeficiency virus 1
Test: Antiviral activity against HIV-1 in human CD4+Th cells expressing DC-SIGN assessed as inhibition of viral infection
Assay type: functional, organism-based
Settings: Human immunodeficiency virus 1, CD4+ve Th
pIC50: −log10 of the molar value.
readout_name: pIC50

item_smiles	assay_value
COC(=O)[C@H]1C[C@H](OCCN)[C@@H](O[C@H]2O[C@H](CO)[C@@H](O)[C@H](O)[C@@H]2O)C[C@@H]1C(=O)OC	7.62
[N-]=[N+]=NCCO[C@H]1C[C@H](C(=O)NCc2ccc(CO)cc2)[C@@H](C(=O)NCc2ccc(CO)cc2)C[C@@H]1O[C@H]1O[C@H](CO)[C@@H](O)[C@H](O)[C@@H]1O	7.62

###

Target: C-type lectin domain family 4 member K (Mus musculus, UniProt Q8VBX4)
Sequence (Q8VBX4 whole entry, the tested form may be a part): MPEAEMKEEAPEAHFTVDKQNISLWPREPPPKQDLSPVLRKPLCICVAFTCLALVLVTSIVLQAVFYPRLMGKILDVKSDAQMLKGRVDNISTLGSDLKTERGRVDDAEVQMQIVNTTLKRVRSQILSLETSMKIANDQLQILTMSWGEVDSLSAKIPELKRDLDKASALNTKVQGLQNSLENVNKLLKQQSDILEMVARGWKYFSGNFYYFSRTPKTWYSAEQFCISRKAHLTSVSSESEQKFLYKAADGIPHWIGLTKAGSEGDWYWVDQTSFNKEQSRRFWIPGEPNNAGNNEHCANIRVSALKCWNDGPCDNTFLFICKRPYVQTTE
Experiment: Inhibition of mannan binding to mouse Langerin extracellular domain by ELLA assay
pIC50: −log10 of the molar value.

item_smiles	pIC50
O=C(NCCc1cn2c(n1)SCC2)c1cnc2sccn2c1=O	4.30

###

Target: C-type lectin domain family 4 member K (Mus musculus)
Assay: Inhibition of mannan binding to mouse Langerin extracellular domain assessed as apparent dissociation constant by ELLA assay
Conditions: read-out: Kd(app)
pKd: −log10 of the molar value.

item_smiles	pKd
O=C(NCCc1cn2c(n1)SCC2)c1cnc2sccn2c1=O	3.35
